Measured melting point values are reported for all entries that follow.

[
  {
    "MOLECULE": "CNC(=O)COC(=O)N1CCC(CCOc2ccc(Br)cc2)CC1",
    "READOUT VALUE": "101 to 103 °C"
  },
  {
    "MOLECULE": "CNC(=O)COC(=O)N1CCC(COc2ccc(-c3ccc(C(F)(F)F)cc3)cc2)CC1",
    "READOUT VALUE": "197 to 199 °C"
  },
  {
    "MOLECULE": "CNC(=O)COC(=O)N1CCC(COc2ccc(Br)cc2)CC1",
    "READOUT VALUE": "163 to 165 °C"
  },
  {
    "MOLECULE": "CNC(=O)COC(=O)N1CCC(Oc2ccc(-c3ccc(F)cc3)cc2)CC1",
    "READOUT VALUE": "117 to 119 °C"
  },
  {
    "MOLECULE": "NC(=O)COC(=O)N1CCC(COc2cccc3ccccc23)C1 (stereo not drawn)",
    "READOUT VALUE": "161 to 163 °C"
  },
  {
    "MOLECULE": "CNC(=O)COC(=O)NCCOc1ccc(Cl)cc1",
    "READOUT VALUE": "147 to 149 °C"
  }
]

// query Which melting point reading was recorded for the molecule NC(=O)COC(=O)N1CCC(CCOc2ccc3ccncc3c2)CC1 ?
// result 179 to 181 °C

// query Which melting point reading was recorded for the molecule NC(=O)COC(=O)N1CCC(COc2cccc3ccccc23)CC1 ?
// result 135 to 136 °C
